meta.source: ChEMBL document CHEMBL1201862

test system: HCT-15
Each record here notes measured GI50.
READOUT LABEL: GI50

- COMPOUND: "[N-]=[N+]=CC(=O)OCCCCl"
  TESTED TARGET: "HCT-15"
  READOUT LABEL: "GI50"
  REPORTED RESULT: "> 100 µM"
- COMPOUND: "Cc1ccc2c(=O)c(C(=O)Nn3c(C)csc3=S)c[nH]c2n1"
  TESTED TARGET: "HCT-15"
  READOUT LABEL: "GI50"
  REPORTED RESULT: "> 100 µM"
- COMPOUND: "Cc1cccc(C)c1NC(=O)C(=O)C1C(=O)N(c2ccccc2)N=C1N (stereo not drawn)"
  TESTED TARGET: "HCT-15"
  READOUT LABEL: "GI50"
  REPORTED RESULT: "> 100 µM"

---

system: DLD-1; test: NCI tumour cell line growth inhibition, 48 h
The source made the active and inactive calls. No stated cut-off is given here; in the data, active = GI50 up to about 1.1 µM and inactive = higher.

- COMPOUND: "Cc1cc(C)c(C(=O)/C=C/c2ccccc2)c(C)c1"
  TESTED TARGET: "DLD-1"
  GI50: "22.6 µM (inactive)"
- COMPOUND: "COc1ccc(CCC2NCCc3cc(OC)c(OC)cc32)cc1 (stereo not given)"
  TESTED TARGET: "DLD-1"
  GI50: "> 100 µM (inactive)"
- COMPOUND: "CC1/C(=N\\O)CC(c2ccccc2)N(C)C1c1ccccc1 (stereo not given)"
  TESTED TARGET: "DLD-1"
  GI50: "> 100 µM (inactive)"
- COMPOUND: "CCOC(=O)c1c2ccc(/C=C/c3ccccn3)ccc-2c(C(=O)OCC)c1N"
  TESTED TARGET: "DLD-1"
  GI50: "> 100 µM (inactive)"
- COMPOUND: "O=C(NC1C(=O)NNC1c1cccc([N+](=O)[O-])c1)c1ccccc1 (stereo not given)"
  TESTED TARGET: "DLD-1"
  GI50: "> 100 µM (inactive)"

---

Each record here notes measured GI50.
test system: U-251; test: NCI tumour cell line growth inhibition, 48 h
Active and inactive are the calls of the source. Cut-off read from the data, not from the text of the source: active = GI50 up to about 1.1 µM and inactive = higher.
READOUT LABEL: GI50

- MOLECULE: "O=C1CSC(c2ccc(Cl)cc2Cl)N1c1ccc(Oc2ccc(Cl)cc2)c(Cl)c1 (centres undefined)"
  READOUT LABEL: "GI50"
  REPORTED RESULT: "31.8 µM (inactive)"
- MOLECULE: "CC(=O)Oc1c2c(c(OC(C)=O)c3c1n(C(C)=O)c1ccccc1n3C(C)=O)n(C(C)=O)c1ccccc1n2C(C)=O"
  READOUT LABEL: "GI50"
  REPORTED RESULT: "10.9 µM (inactive)"
- MOLECULE: "Cc1ccc(Nc2nnc(-c3ccc4c(c3)OCO4)o2)c(C)c1"
  READOUT LABEL: "GI50"
  REPORTED RESULT: "39.2 µM (inactive)"
- MOLECULE: "Cc1c(C)c2ccc3oc4ccccc4c3c2oc1=O"
  READOUT LABEL: "GI50"
  REPORTED RESULT: "> 100 µM (inactive)"

---

test system: K562; experiment: NCI tumour cell line growth inhibition, 48 h
The source made the active and inactive calls. No stated cut-off is given here; in the data, active = GI50 up to about 1.1 µM and inactive = higher. *1 amine or outer side, *2 acyl side, *3 side chain or, on linkers, in order; H or OH if unused. Where a SMILES comes first, the peptide text is derived from it. Bridges are numbered along the chain shown (N, C = ends). Roman numbers before positions name the chains, in order. [ ]: non-standard residue; d: D form. Actinocin(1to9) = Cc1c2oc3c(C)ccc(C(=O)[*:2])c3nc-2c(C(=O)[*:1])c(N)c1=O; NMeV = CN[CH](C(=O)O)C(C)C; Sar = CNCC(=O)O

- COMPOUND: "N#CC(O)CCOCc1ccccc1 (configuration not stated)"
  GI50: "80.7 µM (inactive)"
- COMPOUND: "S=C1/C(=N/c2ccccc2)N(c2ccccc2)/C(=N\\c2ccccn2)N1c1ccccc1"
  GI50: "> 100 µM (inactive)"
- COMPOUND: "CC[C@@H]1CN(C)[C@H]2Cc3c([nH]c4ccccc34)C(=O)C[C@H]1C2C(=O)OC (some centres not stated)"
  GI50: "> 100 µM (inactive)"
- COMPOUND: "CCC(=O)OC1CCn2c1nc1c2C(=O)C(C)=C(NC(C)=O)C1=O (configuration not stated)"
  GI50: "1.87 µM (inactive)"
- COMPOUND: "Nc1nc(N)nc(CCCc2nc(N)nc(N)n2)n1"
  GI50: "> 100 µM (inactive)"
- COMPOUND: "O=C1/C(=C/c2cccs2)N=C(c2ccccc2)N1C1Nc2cc3c(cc2S1)NC(N1C(=O)/C(=C/c2cccs2)N=C1c1ccccc1)S3 (configuration not stated)"
  GI50: "40.9 µM (inactive)"
- COMPOUND: "O=[N+]([O-])c1ccc(Sc2c3ccccc3nc3cc(Cl)ccc23)cc1"
  GI50: "> 10 µM (inactive)"
- COMPOUND: "COc1ccc(CC2NC(=O)C(NC(=O)c3c4nc5c(C(=O)NC6C(=O)NC(Cc7ccc(OC)cc7)C(=O)N7CCCC7C(=O)N(C)CC(=O)N(C)C(C(C)C)C(=O)OC6C)ccc(C)c5oc-4c(C)c(=O)c3N)C(C)OC(=O)C(C(C)C)N(C)C(=O)CN(C)C(=O)C3CCCN3C2=O)cc1 (configuration not stated) (I: TY(Me)P[Sar][NMeV] / II: TY(Me)P[Sar][NMeV]; ester I:1-I:C, II:1-II:C; linker I:N-II:N via Actinocin(1to9); configuration not given here)"
  GI50: "< 0.001 µM (active)"
- COMPOUND: "CNNC(=NS(=O)(=O)c1cc(C#N)c(NNC)cc1S)NNC"
  GI50: "> 10 µM (inactive)"
- COMPOUND: "COc1cccc(-c2[nH]c3cc4c(cc3c(=O)c2C(=O)O)OCO4)c1"
  GI50: "34.5 µM (inactive)"
- COMPOUND: "Cc1ccc(S(=O)(=O)NN=C2CCCCCCCCCCC2)cc1"
  GI50: "> 100 µM (inactive)"
- COMPOUND: "Nc1nc2cc(Cl)ccc2n1N"
  GI50: "> 100 µM (inactive)"
